target: wild-type human Kv1.1 (Homo sapiens, UniProt Q09470); construct: expressed in transfected cells; host or cells: Xenopus laevis oocytes injected with cRNA (pTLNx vector); assay: Two-electrode voltage clamp of oocytes expressing wild-type Kv1.1; assay type: cell-based; conditions: oocytes expressing wild-type Kv1.1; read-out: EC50 for hyperpolarization of EM
Sequence (Q09470 whole entry): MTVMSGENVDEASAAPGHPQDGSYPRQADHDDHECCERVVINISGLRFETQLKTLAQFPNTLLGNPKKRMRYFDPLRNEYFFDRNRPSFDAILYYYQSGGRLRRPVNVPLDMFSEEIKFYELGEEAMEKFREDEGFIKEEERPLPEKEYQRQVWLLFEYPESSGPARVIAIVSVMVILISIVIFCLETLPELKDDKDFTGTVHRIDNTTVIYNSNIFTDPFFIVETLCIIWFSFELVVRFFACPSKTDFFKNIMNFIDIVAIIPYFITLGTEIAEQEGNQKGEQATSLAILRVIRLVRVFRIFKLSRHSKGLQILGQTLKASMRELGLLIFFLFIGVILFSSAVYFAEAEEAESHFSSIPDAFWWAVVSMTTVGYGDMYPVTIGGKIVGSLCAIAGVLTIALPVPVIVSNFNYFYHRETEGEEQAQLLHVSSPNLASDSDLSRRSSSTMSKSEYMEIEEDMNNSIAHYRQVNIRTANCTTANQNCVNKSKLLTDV
MEASURED_PROPERTY: EC50 (nM)
Numbers only, in nM.

input: Provide only the value of recorded EC50 for C[C@@H]1O[C@@H](OC[C@H]2O[C@@H](Oc3c(-c4ccc(O)c(O)c4)oc4cc(O)cc(O)c4c3=O)[C@H](O)[C@@H](O)[C@@H]2O)[C@H](O)[C@H](O)[C@H]1O
output: 150

###

molecular target: wild-type human Kv1.1 (Homo sapiens); construct: expressed in transfected cells; host or cells: Xenopus laevis oocytes injected with cRNA (pTLNx vector); assay: Two-electrode voltage clamp of oocytes expressing wild-type Kv1.1; format: cell-based; conditions: in presence of 100 µM compound
So I've got a bunch of compounds here, and I need their V0.5 Normalized tail current values.
Give bare numbers, in mV.

Reference set (5 entries):
INSERT INTO assay_data (compound, units_of_measure, measurement) VALUES
  ('C[C@@H]1O[C@@H](OC[C@H]2O[C@@H](Oc3c(-c4ccc(O)c(O)c4)oc4cc(O)cc(O)c4c3=O)[C@H](O)[C@@H](O)[C@@H]2O)[C@H](O)[C@H](O)[C@H]1O', 'mV', -31.59),
  ('O=C(O)c1cc(O)c(O)c(O)c1', 'mV', -37.17),
  ('O.Oc1cc(O)c2c(c1)O[C@H](c1ccc(O)c(O)c1)[C@@H](O)C2 [catechin hydrate]', 'mV', -14.70),
  ('O=C1CCC[C@@H]2[C@H]3CCC[N+]4([O-])CCC[C@@H](CN12)[C@@H]34 (stereo partly shown)', 'mV', -21.86),
  ('O=c1cccc2n1C[C@@H]1CNC[C@H]2C1', 'mV', -23.96);

Go through the items and report each one's V0.5 Normalized tail current.
1. O=c1c(O)c(-c2ccc(O)cc2)oc2cc(O)cc(O)c12
2. O=c1c(O)c(-c2ccc(O)c(O)c2)oc2cc(O)cc(O)c12

output:
-22.40
-25.12

###

Could you please report measured EM (unclamped oocyte membrane potential) for the items listed next?
molecular target: wild-type human Kv1.1 (Homo sapiens, UniProt Q09470); construct: expressed in transfected cells; host or cells: Xenopus laevis oocytes injected with cRNA (pTLNx vector); test: Two-electrode voltage clamp of oocytes expressing wild-type Kv1.1; format: cell-based; settings: in presence of 100 µM compound
One number for each entry, in mV.

INSERT INTO measurements (compound, tested_target, measurement) VALUES
  ('C[C@@H]1O[C@@H](OC[C@H]2O[C@@H](Oc3c(-c4ccc(O)c(O)c4)oc4cc(O)cc(O)c4c3=O)[C@H](O)[C@@H](O)[C@@H]2O)[C@H](O)[C@H](O)[C@H]1O [rutin]', 'wild-type human Kv1.1 (Homo sapiens, UniProt Q09470)', -56.75),
  ('O=c1cccc2n1C[C@@H]1CNC[C@H]2C1 [cytisine]', 'wild-type human Kv1.1 (Homo sapiens, UniProt Q09470)', -41.60),
  ('O=c1c(O)c(-c2ccc(O)cc2)oc2cc(O)cc(O)c12 [kaempferol]', 'wild-type human Kv1.1 (Homo sapiens, UniProt Q09470)', -45.25),
  ('O=C(O)c1cc(O)c(O)c(O)c1 [gallic acid]', 'wild-type human Kv1.1 (Homo sapiens, UniProt Q09470)', -49.60),
  ('O=c1c(O)c(-c2ccc(O)c(O)c2)oc2cc(O)cc(O)c12 [quercetin]', 'wild-type human Kv1.1 (Homo sapiens, UniProt Q09470)', -43.50),
  ('O.Oc1cc(O)c2c(c1)O[C@H](c1ccc(O)c(O)c1)[C@@H](O)C2 [catechin hydrate]', 'wild-type human Kv1.1 (Homo sapiens, UniProt Q09470)', -31.33);

input: Name the recorded EM (unclamped oocyte membrane potential) of the item O=C1CCC[C@@H]2[C@H]3CCC[N+]4([O-])CCC[C@@H](CN12)[C@@H]34 (stereo partly shown) [oxymatrine] in your answer.
output: -39.88

###

molecular target: Kv1.1-I182S, E192I, K195N (Kv1.1–3 M) (Homo sapiens, UniProt Q09470, E191I/I183S/K196N); assay: TEVC of oocytes expressing Kv1.1-3M
Sequence (Q09470 whole entry I183S/E191I/K196N): as the sequence (Q09470 whole entry) above, with I183S, E191I, K196N counted along it
MEASURED_PROPERTY: EC50 (nM)
One number for each entry, in nM.

input: Give the value of EC50 reported for the following: O=C(O)c1cc(O)c(O)c(O)c1 [gallic acid]
output: 345

###

biological target: wild-type human Kv1.1 (Homo sapiens, UniProt Q09470); construct: expressed in transfected cells; host or cells: Xenopus laevis oocytes injected with cRNA (pTLNx vector); experiment: Two-electrode voltage clamp of oocytes expressing wild-type Kv1.1; type: cell-based; conditions: in presence of 100 µM compound
Kind request: treat 8 mV as inclusive, so Slope at 8 mV or higher is MET, anything lower is NOT MET.

Below, 4 compounds whose answers are already recorded.
INSERT INTO results (compound, label_value) VALUES
  ('O=c1c(O)c(-c2ccc(O)c(O)c2)oc2cc(O)cc(O)c12 [quercetin]', 'NOT MET'),
  ('O.Oc1cc(O)c2c(c1)O[C@H](c1ccc(O)c(O)c1)[C@@H](O)C2 [catechin hydrate]', 'NOT MET'),
  ('O=C(O)c1cc(O)c(O)c(O)c1 [gallic acid]', 'MET'),
  ('O=C1CCC[C@@H]2[C@H]3CCC[N+]4([O-])CCC[C@@H](CN12)[C@@H]34 (stereo partly shown) [oxymatrine]', 'MET');

input: Is it the case that C[C@@H]1O[C@@H](OC[C@H]2O[C@@H](Oc3c(-c4ccc(O)c(O)c4)oc4cc(O)cc(O)c4c3=O)[C@H](O)[C@@H](O)[C@@H]2O)[C@H](O)[C@H](O)[C@H]1O [rutin] has Slope reaching or exceeding 8 mV?
output: MET

input: Would you say O=c1c(O)c(-c2ccc(O)cc2)oc2cc(O)cc(O)c12 [kaempferol] shows Slope at minimum 8 mV?
output: MET

###

target: wild-type human Kv1.1 (Homo sapiens); construct: expressed in transfected cells; host or cells: Xenopus laevis oocytes injected with cRNA (pTLNx vector); test: Two-electrode voltage clamp of oocytes expressing wild-type Kv1.1; type: cell-based; details: dose response, Fig. 4; read-out: EC50 for ΔV0.5activation
MEASURED_PROPERTY: EC50
In your response, the unit should come after the numeric value.

input: Could you please provide reported EC50 for C[C@@H]1O[C@@H](OC[C@H]2O[C@@H](Oc3c(-c4ccc(O)c(O)c4)oc4cc(O)cc(O)c4c3=O)[C@H](O)[C@@H](O)[C@@H]2O)[C@H](O)[C@H](O)[C@H]1O ? Thanks!
output: 385 nM

###

molecular target: wild-type human Kv1.2 (Homo sapiens); construct: expressed in transfected cells; host or cells: Xenopus laevis oocytes injected with cRNA (pTLNx vector); assay: Two-electrode voltage clamp of oocytes expressing wild-type Kv1.2; assay type: cell-based; details: oocytes expressing Kv1.2; read-out: EC50 for hyperpolarization of EM
Sequence (P16389 whole entry): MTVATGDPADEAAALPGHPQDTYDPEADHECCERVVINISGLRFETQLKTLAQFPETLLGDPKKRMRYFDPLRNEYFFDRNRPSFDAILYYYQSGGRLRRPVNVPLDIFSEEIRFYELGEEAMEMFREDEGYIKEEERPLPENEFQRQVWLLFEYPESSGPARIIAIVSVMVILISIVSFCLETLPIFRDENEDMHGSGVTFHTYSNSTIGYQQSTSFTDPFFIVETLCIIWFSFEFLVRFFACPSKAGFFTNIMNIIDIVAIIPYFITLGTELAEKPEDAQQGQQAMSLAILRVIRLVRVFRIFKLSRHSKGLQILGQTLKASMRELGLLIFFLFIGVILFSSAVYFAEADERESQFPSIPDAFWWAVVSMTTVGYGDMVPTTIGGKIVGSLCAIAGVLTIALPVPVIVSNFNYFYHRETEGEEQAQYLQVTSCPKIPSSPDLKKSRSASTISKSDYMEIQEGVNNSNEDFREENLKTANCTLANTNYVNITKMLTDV
MEASURED_PROPERTY: EC50 (µM)
One number for each entry, in µM.

input: Entry C[C@@H]1O[C@@H](OC[C@H]2O[C@@H](Oc3c(-c4ccc(O)c(O)c4)oc4cc(O)cc(O)c4c3=O)[C@H](O)[C@@H](O)[C@@H]2O)[C@H](O)[C@H](O)[C@H]1O needs its EC50 filled in; supply it.
output: 0.406

###

molecular target: wild-type human Kv1.2 (Homo sapiens); construct: expressed in transfected cells; host or cells: Xenopus laevis oocytes injected with cRNA (pTLNx vector); test: Two-electrode voltage clamp of oocytes expressing wild-type Kv1.2; format: cell-based; settings: dose response, Fig. 4; read-out: EC50 for ΔV0.5activation
MEASURED_PROPERTY: pEC50
One number for each entry, as −log10 of the molar value.

input: Fill: pEC50 (wild-type human Kv1.2 (Homo sapiens)) for this compound C[C@@H]1O[C@@H](OC[C@H]2O[C@@H](Oc3c(-c4ccc(O)c(O)c4)oc4cc(O)cc(O)c4c3=O)[C@H](O)[C@@H](O)[C@@H]2O)[C@H](O)[C@H](O)[C@H]1O
output: 7.14
